- tested on: human α1A-adrenoceptor (Homo sapiens)
- Construct: CHO cells stably expressing either the full‐length human α1A, α1B, or α1D‐adrenoceptor
- Sequence (P35348 whole entry): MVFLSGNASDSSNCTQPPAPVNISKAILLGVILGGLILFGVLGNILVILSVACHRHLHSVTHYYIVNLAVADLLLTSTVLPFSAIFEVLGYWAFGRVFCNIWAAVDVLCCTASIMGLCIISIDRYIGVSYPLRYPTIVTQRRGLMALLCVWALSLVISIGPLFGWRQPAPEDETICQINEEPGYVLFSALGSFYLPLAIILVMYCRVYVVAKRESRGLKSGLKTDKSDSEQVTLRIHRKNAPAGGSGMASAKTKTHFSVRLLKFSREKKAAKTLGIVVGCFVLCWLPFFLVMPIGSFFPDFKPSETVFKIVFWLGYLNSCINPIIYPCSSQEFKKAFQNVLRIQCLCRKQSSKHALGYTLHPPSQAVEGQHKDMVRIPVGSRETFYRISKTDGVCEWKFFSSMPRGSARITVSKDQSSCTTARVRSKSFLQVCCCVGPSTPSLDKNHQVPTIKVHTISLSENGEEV
- test details: [3H]prazosin whole-cell competition binding, CHO-α1A cells
- run conditions: ratio; 1 = no selectivity for a subtype over another
Think of 10 as a floor: if selectivity α1A vs 1D stands on it or above, it is Y; beneath it, N.

| molecule | assigned category |
| --- | --- |
| COC1(C2=NCCN2)COc2ccccc2O1 (stereo not drawn) [RX 821002] | Y |
| CC(C)(C)NCC(O)COc1cccc2[nH]c(=O)[nH]c12 (stereo not drawn) [CGP 12177] | N |
| CCn1ccnc1CC1COc2ccccc2O1 (stereo not drawn) [Imiloxan] | N |
| CNCCCN1c2ccccc2CCc2ccc(Cl)cc21 [Norclomipramine] | Y |
| COc1cccc2c1CCC[C@H]2CN(C)CCc1ccc2ccoc2c1.CS(=O)(=O)O [A80426] | N |
| CC(C)(Cc1c[nH]c2ccccc12)NCC(O)COc1ccccc1C#N (stereo not drawn) [Bucindolol] | Y |
| CCS(=O)(=O)N1CCC[C@@H]2CN3CCc4cc(OC)ccc4[C@@H]3C[C@@H]21 [RS79948] | N |
| COc1ccc(C(CN(C)C)C2(O)CCCCC2)cc1 (stereo not drawn) [Venlafaxime] | N |

###

- tested on: human α1B-adrenoceptor (Homo sapiens, UniProt P35368)
- Construct: CHO cells stably expressing either the full‐length human α1A, α1B, or α1D‐adrenoceptor
- Sequence (P35368 whole entry): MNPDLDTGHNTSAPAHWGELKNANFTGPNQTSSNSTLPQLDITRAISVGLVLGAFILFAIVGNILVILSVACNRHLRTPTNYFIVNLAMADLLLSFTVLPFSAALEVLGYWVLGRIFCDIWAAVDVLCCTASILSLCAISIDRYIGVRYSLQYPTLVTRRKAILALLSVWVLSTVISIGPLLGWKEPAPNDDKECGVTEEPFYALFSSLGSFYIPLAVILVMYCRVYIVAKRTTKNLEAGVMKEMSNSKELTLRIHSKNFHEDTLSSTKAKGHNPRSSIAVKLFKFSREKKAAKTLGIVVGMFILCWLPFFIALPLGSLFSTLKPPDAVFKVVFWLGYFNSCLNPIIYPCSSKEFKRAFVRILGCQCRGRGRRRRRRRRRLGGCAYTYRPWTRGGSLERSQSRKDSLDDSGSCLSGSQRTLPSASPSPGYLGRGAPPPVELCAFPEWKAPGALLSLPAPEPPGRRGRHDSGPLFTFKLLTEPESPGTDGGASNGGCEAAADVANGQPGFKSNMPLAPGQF
- test details: [3H]prazosin whole-cell competition binding, CHO-α1B cells
- run conditions: read-out: Log IC50 α1B (converted)
Reported IC50 by item:
readout: IC50

| compound | value |
| --- | --- |
| Fc1ccc([C@@H]2CCNC[C@H]2COc2ccc3c(c2)OCO3)cc1 | > 10 µM |
| COCCCC/C(=N\OCCN)c1ccc(C(F)(F)F)cc1 | > 100 µM |
| CN(C)CCCC1(c2ccc(F)cc2)OCc2cc(C#N)ccc21 (stereo not drawn) | > 100 µM |
| Cn1cc(C(F)(F)F)nc1-c1ccc(OCC(O)CNCCOc2ccc(O)c(C(N)=O)c2)cc1 (stereo not drawn) [CGP20712A] | > 100 µM |
| CC(C)(C)NCC(O)COc1cccc2[nH]c(=O)[nH]c12 (stereo not drawn) | > 100 µM |
| Cc1ccc(/N=C/N(C)/C=N/c2ccc(C)cc2C)c(C)c1 | > 100 µM |

###

- tested on: full-length human α1D-adrenoceptor (Homo sapiens, UniProt P25100)
- Sequence (P25100 whole entry): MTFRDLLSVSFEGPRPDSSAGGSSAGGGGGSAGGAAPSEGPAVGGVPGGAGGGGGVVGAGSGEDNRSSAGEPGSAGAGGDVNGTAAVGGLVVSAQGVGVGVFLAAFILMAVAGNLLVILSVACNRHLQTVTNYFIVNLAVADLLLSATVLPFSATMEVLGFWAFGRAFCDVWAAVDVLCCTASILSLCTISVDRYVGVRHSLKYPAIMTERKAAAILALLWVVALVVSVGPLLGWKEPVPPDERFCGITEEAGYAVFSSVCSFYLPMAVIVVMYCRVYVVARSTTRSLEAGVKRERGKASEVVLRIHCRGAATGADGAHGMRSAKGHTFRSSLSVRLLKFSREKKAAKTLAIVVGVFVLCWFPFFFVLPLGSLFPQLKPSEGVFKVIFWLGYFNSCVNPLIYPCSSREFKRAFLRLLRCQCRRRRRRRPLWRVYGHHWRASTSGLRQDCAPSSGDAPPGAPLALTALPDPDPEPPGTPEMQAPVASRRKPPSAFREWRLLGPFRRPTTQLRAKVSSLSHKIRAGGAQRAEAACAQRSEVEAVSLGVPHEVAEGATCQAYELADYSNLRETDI
- test details: [3H]prazosin whole-cell competition binding, CHO-α1D cells
pKd: −log10 of the molar value.
Reported pKd by item:

| compound | tested on | pKd |
| --- | --- | --- |
| CC(C)(C)NCC(O)COc1cccc2[nH]c(C#N)cc12 (stereo not shown) [Cyanopindolol] | full-length human α1D-adrenoceptor (Homo sapiens, UniProt P25100) | 5.40 |
| CNCC[C@H](Oc1cccc2ccccc12)c1cccs1 [Duloxetine] | full-length human α1D-adrenoceptor (Homo sapiens, UniProt P25100) | 5.58 |
| Cc1ccc(/N=C/N(C)/C=N/c2ccc(C)cc2C)c(C)c1 [Amitraz] | full-length human α1D-adrenoceptor (Homo sapiens, UniProt P25100) | 5.08 |
| CC(COc1ccccc1)N(CCCl)Cc1ccccc1 (stereo not shown) [Phenoxybenzamine] | full-length human α1D-adrenoceptor (Homo sapiens, UniProt P25100) | 8.43 |
| CN1CCc2cccc(Cl)c2CC1 [SKF86466] | full-length human α1D-adrenoceptor (Homo sapiens, UniProt P25100) | 5.16 |
| CC(C)(Cc1c[nH]c2ccc(Cl)cc12)NCCOc1ccccc1OCC1CC1.Cl [RS17053] | full-length human α1D-adrenoceptor (Homo sapiens, UniProt P25100) | 6.84 |
| CC(C)C[C@H]1C(=O)N2CCC[C@H]2[C@]2(O)O[C@](NC(=O)[C@@H]3C=C4c5cccc6[nH]c(Br)c(c56)C[C@H]4N(C)C3)(C(C)C)C(=O)N12 [Bromocriptine] | full-length human α1D-adrenoceptor (Homo sapiens, UniProt P25100) | 7.31 |

The measurements presented in this section are drawn from paper PMC7327383.
